Ref: the supplement of paper PMC8253809

Would you mind telling me the reported growth inhibition of each entry?
Test system: HGGX6 (H3.3 G34R paediatric high-grade glioma line)
Assay: growth inhibition (% activity, log2 RLU normalised to DMSO / staurosporine); higher = more growth inhibition
Details: 33 µM
Provide only the numeric value, understood in %.

For record NC(=O)N1c2ccccc2CC(=O)c2ccccc21 the listed growth inhibition is -4.21

For record CNC[C@H](O)[C@@H](O)[C@H](O)[C@H](O)CO the listed growth inhibition is 1.37

For record CC(=O)NC[C@H]1CN(c2ccc(N3CCOCC3)c(F)c2)C(=O)O1 the listed growth inhibition is 1.89

For record CC(C)[N+]1(C)[C@@H]2CC[C@H]1C[C@@H](OC(=O)C(CO)c1ccccc1)C2 (stereo partly drawn) the listed growth inhibition is 2.16

For record CC(C)Cn1cnc2c(N)nc3ccccc3c21 the listed growth inhibition is 2.84

For record O=C(NCCN1CCOCC1)c1ccc(Cl)cc1 the listed growth inhibition is -0.698

For record Cc1c(Nc2ncccc2C(=O)O)cccc1C(F)(F)F the listed growth inhibition is 3.08

For record CC1(C)S[C@@H]2[C@H](NC(=O)C(C(=O)O)c3ccccc3)C(=O)N2[C@H]1C(=O)O (stereo partly drawn) the listed growth inhibition is 1.87

For record N=C(N)N the listed growth inhibition is -0.897

For record S=c1[nH]cnc2nc[nH]c12 the listed growth inhibition is 24.2

For record CCCNC(=O)NS(=O)(=O)c1ccc(Cl)cc1 the listed growth inhibition is 2.21

For record COc1ccccc1N1CCN(CCCNc2cc(=O)n(C)c(=O)n2C)CC1 the listed growth inhibition is 0.543

For record O=C1c2ccccc2C(=O)C1c1ccccc1 the listed growth inhibition is 0.118

For record COc1ccccc1N1CCN(CC(O)COc2cccc3ccccc23)CC1 (stereo not drawn) the listed growth inhibition is 1.78

For record Nc1ccc(C(=O)O)c(O)c1 the listed growth inhibition is 1.72

For record Cn1c(=O)c2c(ncn2CC2OCCO2)n(C)c1=O the listed growth inhibition is -0.428

For record CC(=O)OCC(=O)NCCCOc1cccc(CN2CCCCC2)c1 the listed growth inhibition is 0.942

For record N=C(N)c1ccc(OCCCCCOc2ccc(C(=N)N)cc2)cc1 the listed growth inhibition is 20.2

For record CN1[C@@H]2CC[C@H]1CC(OC(=O)c1c[nH]c3ccccc13)C2 (stereo partly drawn) the listed growth inhibition is 1.59

For record O=C(O)c1cc(=O)c2c(OCC(O)COc3cccc4oc(C(=O)O)cc(=O)c34)cccc2o1 the listed growth inhibition is 1.99

For record NCCC(O)(P(=O)(O)O)P(=O)(O)O the listed growth inhibition is 1.86

For record O=C([O-])CC(O)(CC(=O)[O-])C(=O)[O-].O=C([O-])CC(O)(CC(=O)[O-])C(=O)[O-].[Bi+3].[K+].[K+].[K+].[K+].[K+] the listed growth inhibition is 0.952

For record CCC(=O)OCC(=O)[C@@]1(OC(=O)CC)[C@@H](C)C[C@H]2[C@@H]3CCC4=CC(=O)C=C[C@]4(C)[C@@]3(Cl)[C@@H](O)C[C@@]21C the listed growth inhibition is 1.72
